Source: paper PMC8003796

Test system: SARS-CoV-2
ASSAY_OVERVIEW: SARS-CoV-2 infection assay, viral RNA in culture supernatant by real-time RT-PCR
Format: cell-based, SARS-CoV-2 Wk-521 strain
EXPERIMENTAL_SETUP: Severe acute respiratory syndrome coronavirus 2, read-out: IC90 (90% maximal inhibitory concentration); viral RNA in culture supernatant, 24 h post-inoculation, VeroE6/TMPRSS2 cells

COMPOUND: C[C@]12CC[C@H](O)C[C@@H]1CC[C@@H]1[C@@H]2CC[C@@]2(C)[C@H]1CC[C@@H]2[C@](C)(O)CCc1ccc(F)cc1
IC90: > 15 µM

COMPOUND: CC(C)CCC[C@@H](C)[C@H]1CC[C@H]2[C@@H]3CC=C4C[C@@H](O)CC[C@]4(C)[C@H]3CC[C@]12C [Cholesterol, reference compound]
IC90: > 30 µM

COMPOUND: C[C@@H](CO)CCC[C@@H](C)[C@H]1CC[C@H]2[C@@H]3CC=C4C[C@@H](O)CC[C@]4(C)[C@H]3CC[C@]12C [27-OHC, 27-hydroxycholesterol]
IC90: > 30 µM
